Each recorded value in this set is attributed to ChEMBL document CHEMBL4017483.

assayedTarget: Vasopressin V1b receptor (Homo sapiens, UniProt P47901)
Sequence (P47901 whole entry): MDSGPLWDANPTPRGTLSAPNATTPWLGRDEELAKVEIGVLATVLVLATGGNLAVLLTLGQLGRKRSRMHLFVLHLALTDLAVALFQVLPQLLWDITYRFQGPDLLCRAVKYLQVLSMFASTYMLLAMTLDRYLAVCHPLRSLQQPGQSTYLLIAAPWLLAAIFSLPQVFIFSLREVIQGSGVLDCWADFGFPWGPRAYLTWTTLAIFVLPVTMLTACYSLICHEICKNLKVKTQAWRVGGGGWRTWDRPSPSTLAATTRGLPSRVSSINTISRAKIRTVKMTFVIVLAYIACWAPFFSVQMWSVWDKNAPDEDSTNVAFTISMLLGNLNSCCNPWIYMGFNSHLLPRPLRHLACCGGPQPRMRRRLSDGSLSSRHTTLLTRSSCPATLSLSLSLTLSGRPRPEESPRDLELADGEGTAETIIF
runDescription: Agonist activity at human V1b receptor expressed in CHO cells assessed as calcium mobilization measured after 30 mins by Fluo-4-AM dye based FLIPR assay
pEC50: −log10 of the molar value. Numbered stars: 1 amine (or outer) side, 2 acyl side, 3 side chain; on linkers, the order of the positions; unused ones are H or OH. Bridge positions count the residues as written; N and C are the ends. Square brackets hold non-standard residues; d marks the D form. Peptide text beside a SMILES is read from it. Hyp = O=C(O)[C@@H]1C[C@@H](O)CN1; tBuAla = CC(C)(C)C[C@H](N)C(=O)O; X1 = O=C(CCC[*:2])[*:1]; Mpa = O=C(O)CCS
readoutLabel: pEC50

Parameter requested: pEC50. Apply to each item below.
1. CC[C@H](C)[C@@H]1NC(=O)[C@H](CO)NC(=O)CCSSC[C@@H](C(=O)N2CCC[C@H]2C(=O)N[C@@H](CC(C)C)C(=O)NCC(N)=O)NC(=O)[C@H](CC(N)=O)NC(=O)[C@H](CCC(N)=O)NC1=O ([Mpa]SIQNCPLG-NH2; disulfide 1-6)
2. CC(C)C[C@H](NC(=O)[C@@H]1CCCN1C(=O)[C@@H]1CSSCCC(=O)N[C@@H](Cc2ccc(O)cc2)C(=O)N[C@@H](CO)C(=O)N[C@@H](CCC(N)=O)C(=O)N[C@@H](CC(N)=O)C(=O)N1)C(=O)NCC(N)=O ([Mpa]YSQNCPLG-NH2; disulfide 1-6)
3. CC[C@H](C)[C@@H]1NC(=O)[C@H](Cc2ccc(O)cc2)NC(=O)CCSSC[C@@H](C(=O)N[C@@H](CCC(=O)O)C(=O)N[C@@H](CC(C)C)C(=O)NCC(N)=O)NC(=O)[C@H](CC(N)=O)NC(=O)[C@H](CCC(N)=O)NC1=O ([Mpa]YIQNCELG-NH2; disulfide 1-6)
4. CC[C@H](C)[C@@H]1NC(=O)[C@H](Cc2ccc(O)cc2)NC(=O)CCSSC[C@@H](C(=O)N2CCC[C@H]2C(=O)N[C@@H](CCCNC(=N)N)C(=O)NCC(N)=O)NC(=O)[C@H](CC(N)=O)NC(=O)[C@H](CCC(N)=O)NC1=O ([Mpa]YIQNCPRG-NH2; disulfide 1-6)
5. CC[C@H](C)[C@@H]1NC(=O)[C@H](Cc2ccc(O)cc2)NC(=O)CCSSC[C@@H](C(=O)N2CCC[C@H]2C(=O)N[C@H](C(=O)NCC(N)=O)C(C)C)NC(=O)[C@H](CC(N)=O)NC(=O)[C@H](CCC(N)=O)NC1=O ([Mpa]YIQNCPVG-NH2; disulfide 1-6)
6. CC[C@H](C)[C@@H]1NC(=O)[C@H](Cc2ccc(O)cc2)NC(=O)CCCSC[C@@H](C(=O)N2C[C@H](O)C[C@H]2C(=O)N[C@@H](CC(C)(C)C)C(=O)NCC(N)=O)NC(=O)[C@H](CC(N)=O)NC(=O)[C@H](CCC(N)=O)NC1=O (YIQNC[Hyp][tBuAla]G-NH2; linker N-5 via X1)
7. CC[C@H](C)[C@@H]1NC(=O)[C@H](Cc2ccc(O)cc2)NC(=O)CCSSC[C@@H](C(=O)N[C@@H](CC(C)C)C(=O)N[C@@H](CC(C)C)C(=O)NCC(N)=O)NC(=O)[C@H](CC(N)=O)NC(=O)[C@H](CCC(N)=O)NC1=O ([Mpa]YIQNCLLG-NH2; disulfide 1-6)

1: < 7.00; 2: < 7.00; 3: < 7.00; 4: 10.47; 5: 8.89; 6: < 7.00; 7: < 7.00
